Origin of the recorded values: patent US7488759B2

test: pharmacokinetic study in Beagle dogs, oral capsules; format: in vivo; details: Beagle, dog, plasma, po, 62.5 mg, 7 Beagle dogs, oral capsule 62.5 mg base equivalent

[
  {
    "molecule": "CN(C/C=C/C#CC(C)(C)C)Cc1cccc2ccccc12 [L-(−)-hydrogen malate, terbinafine L-(−)-hydrogen malate]",
    "AUC (ng·h/mL)": 392
  }
]

====

experiment: solubility in water and organic solvents; type: physicochemical; settings: 25 °C, aqueous with cosolvent or surfactant or cyclodextrin, solubility, read-out: solubility in ethane/water 2:8 v/v

[
  {
    "input-smiles": "CN(C/C=C/C#CC(C)(C)C)Cc1cccc2ccccc12",
    "solubility": "> 30 mg/mL"
  }
]
